System: Wnt5a (protein binding on small-molecule microarray)
Assay: Wnt5a binders on small-molecule microarray, primary screen, biophysical, 635/667 nm fluorescence (AID 1142);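 note: fluorescence read at 667 nm with signal to noise per printed feature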
Details: 635 nm fluorescence, higher = more signal
composite z-score class ranges: class 0 = under 0.02, class 1 = from 0.02 up to 0.2, class 2 = 0.2 and over

[[record]]
molecule = "COC(=O)[C@@H]1CC[C@H](C)[C@@H](c2ccc(C)cc2)N1C(=O)c1ccc(C=NO[C@@H](C)c2cc(-c3c(C)cc(C)cc3C)no2)cc1"
target_or_system = "Wnt5a (protein binding on small-molecule microarray)"
assigned_label = "class 1"

[[record]]
molecule = "COC(=O)CC=C[C@@H](C)[C@@H](C=NOC[C@@H](C)[C@H](OCc1ccccc1)C(C)C)OC"
target_or_system = "Wnt5a (protein binding on small-molecule microarray)"
assigned_label = "class 1"

[[record]]
molecule = "C[C@@H]1CC[C@H]2C(=O)OC(CN3C(=O)c4ccccc4C3=O)CN2[C@H]1c1ccc(Br)cc1 (some centres undefined)"
target_or_system = "Wnt5a (protein binding on small-molecule microarray)"
assigned_label = "class 0"

[[record]]
molecule = "O=C1[C@H]2[C@H]3[C@H](O)[C@H](O)CC(=NOC[C@@H](O)COCc4ccco4)[C@@H]3CC[C@H]2C(=O)N1C1CCCCC1"
target_or_system = "Wnt5a (protein binding on small-molecule microarray)"
assigned_label = "class 1"

[[record]]
molecule = "COC(=O)[C@H](C)NC(=O)CCC1CC(OC(=O)NCCc2ccc(F)cc2)CC2(CCCC(COC(=O)NCCc3ccccc3OC)O2)O1 (some centres undefined)"
target_or_system = "Wnt5a (protein binding on small-molecule microarray)"
assigned_label = "class 2"

[[record]]
molecule = "CON=C(C)CCN1CCc2nc(-c3ccccc3)c(-c3ccccc3)cc2C1"
target_or_system = "Wnt5a (protein binding on small-molecule microarray)"
assigned_label = "class 0"

[[record]]
molecule = "CO[C@@H]1[C@H](O)CO[C@H]1C=Cc1ccccc1"
target_or_system = "Wnt5a (protein binding on small-molecule microarray)"
assigned_label = "class 0"

[[record]]
molecule = "CC1(C)O[C@H]2O[C@H]([C@H](O)CON=C3[C@H]4CCn5c(=O)n(-c6ccccc6)c(=O)n5[C@H]4[C@H](O)[C@@H]4O[C@H]34)[C@H](O)[C@H]2O1"
target_or_system = "Wnt5a (protein binding on small-molecule microarray)"
assigned_label = "class 0"

[[record]]
molecule = "CCN1C(=O)[C@H]2[C@H]3[C@H](O)[C@H](O)CC(=NOCC=C(C)CCC=C(C)C)[C@@H]3CC[C@H]2C1=O"
target_or_system = "Wnt5a (protein binding on small-molecule microarray)"
assigned_label = "class 2"

[[record]]
molecule = "CC(=O)OC[C@H]1O[C@H](CC=NO[C@@H](C)c2cn([C@H](CO)Cc3ccccc3)nn2)C=C[C@@H]1OC(C)=O"
target_or_system = "Wnt5a (protein binding on small-molecule microarray)"
assigned_label = "class 0"

[[record]]
molecule = "CON(C)C(=O)c1nnc2c(n1)[nH]c1ccccc12"
target_or_system = "Wnt5a (protein binding on small-molecule microarray)"
assigned_label = "class 1"

[[record]]
molecule = "CC[C@@H](c1ccccc1)n1c(=O)n2n(c1=O)[C@H]1[C@H](O)[C@@H]3O[C@@H]3C(=NOCc3ccccc3)[C@H]1CC2"
target_or_system = "Wnt5a (protein binding on small-molecule microarray)"
assigned_label = "class 1"


---

Test system: Neuregulin-1 EGF-like domain
Assay: binders of neuregulin-1 EGF-like domain, primary screen, biochemical, small-molecule microarray, 635 nm fluorescence (AID 1081);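 note: binding of the protein to compounds printed on small-molecule microarray slides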
Details: small-molecule microarray binding, higher = more signal
QUANTITY: composite z-score

[[record]]
compound = "CCOC(=O)[C@H](CC(C)C)NC(=O)CCC1CC(OC(=O)NCc2ccc3c(c2)OCO3)CC2(CCCC(COC(=O)NCCc3ccccc3OC)O2)O1 (stereo not given in full)"
target_or_system = "Neuregulin-1 EGF-like domain"
reading = 0.978

[[record]]
compound = "COC(=O)[C@H](C)NC(=O)CCC1CC(OC(=O)NCc2cccc3ccccc23)CC2(CCCC(COC(=O)NCCOc3ccccc3)O2)O1 (stereo not given in full)"
target_or_system = "Neuregulin-1 EGF-like domain"
reading = 1.01

[[record]]
compound = "C=CC[C@@H]1C=C[C@H](ON=C2C[C@@H](O)[C@@H](O)[C@@H]3[C@@H]4C(=O)N(CC)C(=O)[C@@H]4CC[C@@H]23)[C@@H](CO)O1"
target_or_system = "Neuregulin-1 EGF-like domain"
reading = -0.33

[[record]]
compound = "CCOC(=O)[C@H](Cc1ccccc1)NC(=O)CCC1CC(OC(=O)NCc2ccc3c(c2)OCO3)CC2(CCCC(COC(=O)NCCCN3CCCC3=O)O2)O1 (stereo not given in full)"
target_or_system = "Neuregulin-1 EGF-like domain"
reading = 0.85

[[record]]
compound = "O=C1[C@H]2CCn3c(=O)n(-c4ccccc4)c(=O)n3[C@H]2[C@H](O)[C@@H]2O[C@H]12"
target_or_system = "Neuregulin-1 EGF-like domain"
reading = -0.125

[[record]]
compound = "CCCNC(=O)OC[C@H]1O[C@H](CCON=C2c3cc(OC)ccc3O[C@H](c3cccc(OC)c3)[C@H]2O)C=C[C@@H]1Oc1ccc(OC)cc1"
target_or_system = "Neuregulin-1 EGF-like domain"
reading = 0.93

[[record]]
compound = "C[C@@H]1CC[C@@H](C(=O)O)N[C@H]1c1cccc(N2CCOCC2)c1"
target_or_system = "Neuregulin-1 EGF-like domain"
reading = 0.251

[[record]]
compound = "COc1ccc(COC(=O)NN=C2C[C@@H](O)[C@@H](O)[C@@H]3[C@@H]4C(=O)N(C[C@@H]5CCCO5)C(=O)[C@@H]4CC[C@H]23)cc1"
target_or_system = "Neuregulin-1 EGF-like domain"
reading = -0.563

[[record]]
compound = "COc1ccc(O[C@H]2C=C[C@@H](c3ccccc3)O[C@@H]2CON=C(C)CCN2CCCc3nc(C)c(C)cc32)cc1"
target_or_system = "Neuregulin-1 EGF-like domain"
reading = 0.954

[[record]]
compound = "CC(C)CON=C1C[C@@H](O)[C@@H](O)[C@@H]2[C@@H]3C(=O)N([C@@H](C)c4ccccc4)C(=O)[C@@H]3CC[C@@H]12"
target_or_system = "Neuregulin-1 EGF-like domain"
reading = -0.546

[[record]]
compound = "O=C1C2=CC[C@H]3C(=O)N(Cc4ccccc4)C(=O)[C@H]3[C@H]2[C@H](O)[C@@H]2O[C@H]12"
target_or_system = "Neuregulin-1 EGF-like domain"
reading = 0.281

[[record]]
compound = "O=C1CCCC=C1C(O)C1CCCCC1 (stereo not given)"
target_or_system = "Neuregulin-1 EGF-like domain"
reading = -0.593

[[record]]
compound = "COc1ccc(COC(=O)NN=C2C[C@@H](O)[C@@H](O)[C@@H]3[C@@H]4C(=O)N(C[C@@H]5CCCO5)C(=O)[C@@H]4CC[C@@H]23)cc1"
target_or_system = "Neuregulin-1 EGF-like domain"
reading = 0.775

[[record]]
compound = "CON(C)C(=O)c1nnc2c(n1)[nH]c1ccccc12"
target_or_system = "Neuregulin-1 EGF-like domain"
reading = 0.823

[[record]]
compound = "CC(C)[C@@H](OCc1ccccc1)[C@H](C)C=NOC[C@@H](O)[C@H]1O[C@@H]2OC(C)(C)O[C@@H]2[C@H]1O"
target_or_system = "Neuregulin-1 EGF-like domain"
reading = 0.361


---

# Lookup of reported composite z-score keyed by entry
Target: Neurogenic locus notch homolog protein 2 (Homo sapiens)
Assay: Notch2 binders on small-molecule microarrays, primary screen, biochemical, small-molecule microarray, 635 nm fluorescence, stem cell growth factors (AID 1073)
Settings: Notch2 binding, higher = more signal
QUANTITY: composite z-score

[[record]]
compound = "CC(C)C(=O)N[C@H]1CCCN1C(=O)C=Cc1ccccc1"
quantity = "composite z-score"
reading = 0.74

[[record]]
compound = "CCN1C(=O)[C@H]2[C@H]3[C@H](O)[C@H](O)CC(=NNC(=O)OCc4ccccc4)[C@H]3CC[C@H]2C1=O"
quantity = "composite z-score"
reading = -0.0049

[[record]]
compound = "C[C@H]1CC[C@H]2C(=O)N[C@H](Cc3ccccc3)C(=O)N2[C@@H]1c1ccccc1"
quantity = "composite z-score"
reading = 0.301

[[record]]
compound = "C[C@@H]1C=CCC(=O)OC[C@H](C)C(=O)N[C@@H](Cc2ccccc2)C(=O)OC1"
quantity = "composite z-score"
reading = 0.443

[[record]]
compound = "C=CC[C@@H]1C=C[C@H](ON=C[C@@H](NS(=O)(=O)c2ccc(C)cc2)[C@H](C)C=CCC(=O)OC)[C@@H](CO)O1"
quantity = "composite z-score"
reading = -0.0681

[[record]]
compound = "COC(=O)[C@H](C)NC(=O)CCC1CC(OC(=O)NCc2cccc3ccccc23)CC2(CCCC(COC(=O)NCCc3ccccc3OC)O2)O1 (some centres undefined)"
quantity = "composite z-score"
reading = 1.24

[[record]]
compound = "COC(OC)[C@@H](C)[C@H](OC)[C@@H](C)[C@H](OC)c1ccccc1"
quantity = "composite z-score"
reading = -0.0257

[[record]]
compound = "COC(=O)CC=C[C@@H](C)[C@@H](C=NOC(C)CN1CCCCc2nc(C)c(C)cc21)OC (some centres undefined)"
quantity = "composite z-score"
reading = -0.229

[[record]]
compound = "COC(=O)CC=C1c2ccccc2[C@H](OC)[C@H]1C"
quantity = "composite z-score"
reading = -0.0929

